# Test system: CU-ACC1
# assay_procedure: area under concentration-response curve (viability) (AUC (a.u.)); higher = less active
# measurement_conditions: 48 h
Tag: rule met if measured area under concentration-response curve is not below 400, rule not met if it is.

compound: OC(=O)/C1=C/CCN(CCOC(C2=CC=C(C=C2)C(F)(F)F)C3=CC=C(C=C3)C(F)(F)F)C1
experimental_system: CU-ACC1
assigned_label: rule met

compound: CCOC(=O)C(C)OC1=CC=CC2=C1\C=C/N(CC(=O)NC3=CC=C4OCCOC4=C3)C2=O (centres undefined)
experimental_system: CU-ACC1
assigned_label: rule met

compound: CNc1nc(Nc2cnn([C@H]3CCN(C4COC4)C[C@@H]3F)c2Cl)ncc1C(F)(F)F
experimental_system: CU-ACC1
assigned_label: rule met

compound: C[S+](=O)([O-])c1ccc(-c2cnc(NCc3ccco3)n3cnnc23)cc1
experimental_system: CU-ACC1
assigned_label: rule not met

compound: CN(C)C(=O)[C@H](O)[C@H](Cc1ccccc1)NC(=O)c1cc2cc(Cl)ccc2[nH]1
experimental_system: CU-ACC1
assigned_label: rule not met

compound: Clc1ccc(COC(Cn2ccnc2)c2ccc(Cl)cc2Cl)cc1 (centres undefined)
experimental_system: CU-ACC1
assigned_label: rule met

compound: CN1CCN(C(=O)c2ccc(-c3ccc4c(C=O)c(O)ccc4c3)s2)CC1
experimental_system: CU-ACC1
assigned_label: rule met

compound: CN(C)CC/C=C1/c2ccccc2COc2ccc(CC(=O)O)cc21
experimental_system: CU-ACC1
assigned_label: rule met

compound: CC[C@H]1OC(=O)[C@H](C)[C@@H](O[C@H]2C[C@@](C)(OC)[C@@H](O)[C@H](C)O2)[C@H](C)[C@@H](O[C@@H]2O[C@H](C)C[C@H](N(C)C)[C@H]2O)[C@](C)(O)C[C@@H](C)CN(C)[C@H](C)[C@@H](O)[C@]1(C)O
experimental_system: CU-ACC1
assigned_label: rule not met

compound: CN1\C(=C(\O)C2=C(C=CS2)[S+]1([O-])=O)C(=O)NC3=CC=CC=N3
experimental_system: CU-ACC1
assigned_label: rule met

compound: COc1cccc2c(NCc3ccccc3)nc(-n3c(N)nc4ccccc43)nc12
experimental_system: CU-ACC1
assigned_label: rule not met

compound: COc1ccccc1N1CCN(CC(O)COc2cccc3ccccc23)CC1 (centres undefined)
experimental_system: CU-ACC1
assigned_label: rule met

compound: CC(N)C12CC3CC(CC(C3)C1)C2 (centres undefined)
experimental_system: CU-ACC1
assigned_label: rule met

compound: O=C1[O][Pt]2([NH]C3CCCCC3[NH]2)[O]C1=O (centres undefined)
experimental_system: CU-ACC1
assigned_label: rule met

compound: COC[C@@H](c1ccc(C(F)(F)F)cc1)N1CCN(C2(C)CCN(C(=O)c3c(C)ncnc3C)CC2)C[C@@H]1C
experimental_system: CU-ACC1
assigned_label: rule met

compound: N#Cc1ccnc(N2C(=O)CC[C@H]2C(=O)N(c2cncc(F)c2)C(C(=O)NC2CC(F)(F)C2)c2ccccc2Cl)c1 (some centres undefined)
experimental_system: CU-ACC1
assigned_label: rule met

compound: Cc1csc(-c2nnc(Nc3ccc(Oc4ncccc4-c4ccnc(N)n4)cc3)c3ccccc23)c1
experimental_system: CU-ACC1
assigned_label: rule met

compound: [O-][n+]1cccc(-c2nc3c(Cl)cccc3cc2[C@@H](Nc2ncnc3cccnc23)C(F)(F)F)c1
experimental_system: CU-ACC1
assigned_label: rule not met

compound: COc1cc2ncnc(Nc3ccc(O)c(Br)c3)c2cc1OC
experimental_system: CU-ACC1
assigned_label: rule met

compound: Cc1nc(NC(=O)N2CCC[C@H]2C(N)=O)sc1-c1ccnc(C(C)(C)C(F)(F)F)c1
experimental_system: CU-ACC1
assigned_label: rule met

compound: CC(C)(C)OC(=O)Nc1ccc(-c2cc(C(=O)NCCCCCCC(=O)NO)no2)cc1
experimental_system: CU-ACC1
assigned_label: rule met

compound: O=C1c2c(O)ccc(O)c2C(=O)c2c(NCCNCCO)ccc(NCCNCCO)c21
experimental_system: CU-ACC1
assigned_label: rule met

compound: C[S+](=O)([O-])Oc1ccc2c(NC(N)=O)c(C(=O)c3ccc(Cl)cc3Cl)oc2c1
experimental_system: CU-ACC1
assigned_label: rule met

compound: COC1=C2OC(=O)\C=C/C2=CC3=C1OC=C3
experimental_system: CU-ACC1
assigned_label: rule met

compound: OC1=C(C=CC=C1)C2=CC=C(C=C2)C3=CSC4=C3C(=C(/C#N)C(=O)N4)/O
experimental_system: CU-ACC1
assigned_label: rule met

compound: CC(C)C[C@H](NC(=O)[C@@H](O)[C@H](N)Cc1ccccc1)C(=O)O
experimental_system: CU-ACC1
assigned_label: rule met

compound: C[C@H]1CC2[C@@H]3CCC/4=C/C(=O)/C=C\[C@]4(C)[C@@]3(F)[C@@H](O)C[C@]2(C)[C@@]1(O)C(=O)CO (some centres undefined)
experimental_system: CU-ACC1
assigned_label: rule met

compound: O=C(Nc1ccc2c(c1)CCN(Cc1ncn[nH]1)C2)c1ccccc1-c1ccc(C(F)(F)F)cc1
experimental_system: CU-ACC1
assigned_label: rule not met
